Hello, the source for this data is patent US20230061736A1, in case you need it.

biological target: UniProt Q8TDV5; assay: cAMP accumulation assay (cAMP Gs dynamic HTRF kit); settings: CHO-K1 cells stably expressing hGPR119; cAMP accumulation; 4-parameter fit
measure name: EC50

As a guide, the following entries are already answered.
compound	result
COCc1cnc(N2CCC([C@H]3C[C@H]3CCOc3ccc(CC(=O)N4CC[C@@H](CNCC(CO)(CO)CO)C4)c(F)c3)CC2)nc1 [Example 163]	≤ 100 nM
O=C(NCCO[C@H]1O[C@H](CO)[C@@H](O)[C@H](O)[C@@H]1O)C1CN(C(=O)Cc2ccc(OCCCC3CCN(c4ncc(Cl)cn4)CC3)cc2F)C1 (racemic) [Example 31]	100 to 1000 nM

With those in mind, consider the next compound.
Record request: EC50 value, item O=C(Cc1ccc(OCCC2CC23CCN(c2ncc(Cl)cn2)CC3)cc1F)N1CC(CNC[C@H](O)[C@@H](O)[C@H](O)[C@H](O)CO)C1 (stereo partly shown) [Example 110]
100 to 1000 nM

* * *

biological target: UniProtKB Q8TDV5; experiment: cAMP accumulation assay (cAMP Gs dynamic HTRF kit); details: CHO-K1 cells stably expressing hGPR119; cAMP accumulation; 4-parameter fit
pEC50: −log10 of the molar value.
measure name: pEC50

As a guide, the following entries are already answered.
> print(dat)
                                   molecule  measure.name        result
1  O=C(Cc1c(F)cc(OCCC2CCC23CCN(c2ncc(Cl)cn2)CC3)cc1F)N1CC(CNC[C@H](O)[C@@H](O)[C@H](O)[C@H](O)CO)C1 (stereo partly drawn)         pEC50  6.00 to 7.00
2  CCc1cnc(N2CCC(CCCOc3ccc(CC(=O)NCCC[N+](C)(C)C)c(F)c3)CC2)nc1         pEC50  6.00 to 7.00
3  COCC1(C(=O)NCC(CO)(CO)CO)CCN(C(=O)Cc2ccc(OCCCC3CCN(c4ncc(Cl)cn4)CC3)cc2F)C1 (stereo not drawn)         pEC50        ≥ 7.00

Record request: pEC50 value, item COCc1cnc(N2CCC(CCCOc3ccc(CC(=O)N4CC(CNCC[C@@H](O)C[C@@H](O)CC(=O)O)C4)c(F)c3)CC2)nc1
6.00 to 7.00

Record request: pEC50 value, item CCCc1cnc(N2CCC(CCCOc3cc(F)c(CC(=O)N4CC(CNC[C@H](O)[C@@H](O)[C@H](O)[C@H](O)CO)C4)c(F)c3)CC2)nc1
≥ 7.00

* * *

experiment: Oral bioavailability in mice; conditions: mouse, in vivo; C57BL/6 mice; IV 1 mg/kg, PO 30 mg/kg
Reported bioavailability values for a set of compounds
Give just the number in %; leave the unit off.

Record request: bioavailability value, item O=C(Cc1ccc(OCCCC2CCN(c3ncc(Cl)cn3)CC2)cc1F)N1CC(CNC[C@H](O)[C@@H](O)[C@H](O)[C@H](O)CO)C1
2.4

Record request: bioavailability value, item COCc1cnc(N2CCC(CCCOc3ccc(CC(=O)N4CC(CNC[C@H](O)[C@@H](O)[C@H](O)[C@H](O)CO)C4)c(F)c3)CC2)nc1
1.4

* * *

Reported EC50 values for a set of molecules
target: human GPR119 (hGPR119) (Homo sapiens); experiment: cAMP accumulation assay (cAMP Gs dynamic HTRF kit); conditions: CHO-K1 cells stably expressing hGPR119; cAMP accumulation; 4-parameter fit

As a guide, the following entries are already answered.
> print(dat)
                                   molecule          result
1  CCCc1cnc(N2CCC(CCCOc3ccc(CC(=O)N4CC(CNCCNC(=O)NC(CO)(CO)CO)C4)c(F)c3)CC2)nc1  100 to 1000 nM
2  CCCc1cnc(N2CCC(CCCOc3cc(F)c(CC(=O)N4CC(CNC(CO)(CO)CO)C4)c(F)c3)CC2)nc1        ≤ 100 nM
3  O=C(NC(CO)(CO)CO)C1CN(C(=O)Cc2c(F)cc(OCCCC3CCN(c4ncc(Cl)cn4)CC3)cc2F)C1        ≤ 100 nM
4  CCOc1cnc(N2CCC(CCCOc3ccc(CC(=O)N4CC(CNC[C@H](O)[C@@H](O)[C@H](O)[C@H](O)CO)C4)c(F)c3)CC2)nc1 (racemic)  100 to 1000 nM
5  O=C(Cc1ccc(OCCCC2CCN(c3ncc(Cl)cn3)CC2)cc1F)N1CC(CCNC(CO)CO)C1        ≤ 100 nM

With those in mind, consider the next molecule.
Record request: EC50 value, item O=C(Cc1ccc(OCCCC2CCC23CCN(c2ncc(Cl)cn2)CC3)cc1F)N1CC(CNC[C@H](O)[C@@H](O)[C@H](O)[C@H](O)CO)C1 (stereo partly drawn)
1000 to 10000 nM

* * *

target: human GPR119 (hGPR119) (Homo sapiens); construct: expressed in transfected cells; experiment: cAMP accumulation assay (cAMP Gs dynamic HTRF kit); type: cell-based; conditions: 1 h; CHO-K1 cells stably expressing hGPR119; % activity normalized to Max/Min controls; 4-parameter fit
Reported Emax values for a set of compounds

As a guide, the following entries are already answered.
compound	Emax
COCc1cnc(N2CCC(CCCOc3cc(F)c(CC(=O)N4CCC(O)(CNCC(CO)(CO)CO)C4)c(F)c3)CC2)nc1 (stereo not drawn) [Example 190]	100 to 130%
CCOc1cnc(N2CCC(CCCOc3cc(F)c(CC(=O)N4CC(CNC[C@H](O)[C@@H](O)[C@H](O)[C@H](O)CO)C4)c(F)c3)CC2)nc1 [Example 114]	100 to 130%
COCc1cnc(N2CCC([C@H]3C[C@H]3CCOc3ccc(CC(=O)N4CC(CNC[C@H](O)[C@@H](O)[C@H](O)[C@H](O)CO)C4)c(F)c3)CC2)nc1 (mixture of isomers) [Example 97]	100 to 130%
COCc1cnc(N2CCC(CCCOc3ccc(CC(=O)N4CC(C(=O)NCCNC(=O)NC(CO)(CO)CO)C4)c(F)c3)CC2)nc1 [Example 27]	100 to 130%
O=C(Cc1ccc(OCCC2CC23CCN(c2ncc(Cl)cn2)CC3)cc1F)N1CC(CNC[C@H](O)[C@@H](O)[C@H](O)[C@H](O)CO)C1 (stereo partly drawn) [Example 110]	100 to 130%
O=C(Cc1ccc(OCCCC2CCN(c3ncc(Cl)cn3)CC2)cc1F)N1CC(CCNC[C@H](O)[C@@H](O)[C@H](O)[C@H](O)CO)C1 [Example 61]	100 to 130%
COC(=O)c1cnc(N2CCC(CCCOc3ccc(CC(=O)N4CC(CNC[C@H](O)[C@@H](O)[C@H](O)[C@H](O)CO)C4)c(F)c3)CC2)nc1 [Example 87]	100 to 130%
O=C(Cc1c(F)cc(OCCCC2CCN(c3ncc(Cl)cn3)CC2)cc1F)N1CC[C@@H](CNCC(CO)(CO)CO)C1 [Example 151]	≥ 130%
O=C(Cc1ccc(OCCCC2CCN(c3ncc(Cl)cn3)CC2)cc1F)N1CC[C@H](CNC[C@H](O)[C@@H](O)[C@H](O)[C@H](O)CO)C1 [Example 100]	100 to 130%
CCCc1cnc(N2CCC(CCCOc3cc(F)c(CC(=O)N4CC(CNC[C@H](O)[C@@H](O)[C@H](O)[C@H](O)CO)C4)c(F)c3)CC2)nc1 [Example 78]	100 to 130%

Record request: Emax value, item O=C(Cc1ccc(OCCCC2CCN(c3ncc(Cl)cn3)CC2)cc1F)N1CC(CNC[C@@H](O)[C@H](O)[C@H](O)CO)C1 [Example 167]
100 to 130%

Record request: Emax value, item O=C(NCC(O)(CO)CO)C1CN(C(=O)Cc2ccc(OCCCC3CCN(c4ncc(Cl)cn4)CC3)cc2F)C1 [Example 30]
100 to 130%

* * *

molecular target: human GPR119 (hGPR119) (Homo sapiens, UniProt Q8TDV5); assay: cAMP accumulation assay (cAMP Gs dynamic HTRF kit); conditions: CHO-K1 cells stably expressing hGPR119; cAMP accumulation; 4-parameter fit
Sequence (Q8TDV5 whole entry): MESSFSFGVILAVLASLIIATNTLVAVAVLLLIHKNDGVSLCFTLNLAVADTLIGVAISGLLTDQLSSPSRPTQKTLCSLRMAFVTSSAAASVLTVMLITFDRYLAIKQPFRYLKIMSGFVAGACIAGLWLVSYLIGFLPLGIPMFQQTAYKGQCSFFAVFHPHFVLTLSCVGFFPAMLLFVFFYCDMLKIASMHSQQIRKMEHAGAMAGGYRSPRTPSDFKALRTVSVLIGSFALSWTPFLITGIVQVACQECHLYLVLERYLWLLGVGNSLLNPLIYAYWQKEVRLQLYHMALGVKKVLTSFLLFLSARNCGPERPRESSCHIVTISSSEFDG
measure name: EC50

As a guide, the following entries are already answered.
> print(dat)
                                   molecule                           target.of.assay            result
1  O=C(Cc1ncc(OCCCC2CCN(c3ncc(Cl)cn3)CC2)cc1F)N1CC(CNC[C@H](O)[C@@H](O)[C@H](O)[C@H](O)CO)C1  human GPR119 (hGPR119) (Homo sapiens, UniProt Q8TDV5)    100 to 1000 nM
2  CCOc1cnc(N2CCC(CCCOc3cc(F)c(CC(=O)N4CCC(O)(CNCC(CO)(CO)CO)C4)c(F)c3)CC2)nc1 (stereo not shown)  human GPR119 (hGPR119) (Homo sapiens, UniProt Q8TDV5)          ≤ 100 nM
3  O=C(Cc1ccc(OCCCC2CCN(c3ncc(Cl)cn3)CC2)cc1F)N1CC(CCNC(CO)(CO)CO)C1  human GPR119 (hGPR119) (Homo sapiens, UniProt Q8TDV5)    100 to 1000 nM
4  O=C(Cc1ccc(OCCCC2CCN(c3ncc(Cl)cn3)CC2)cc1F)NCCC(=O)NC(CO)CO  human GPR119 (hGPR119) (Homo sapiens, UniProt Q8TDV5)    100 to 1000 nM
5  COCc1cnc(N2CCC(CCCOc3cc(F)c(CC(=O)N4CC[C@H](C(=O)NC[C@H](O)[C@@H](O)[C@H](O)[C@H](O)CO)C4)c(F)c3)CC2)nc1  human GPR119 (hGPR119) (Homo sapiens, UniProt Q8TDV5)          ≤ 100 nM
6  CCOc1cnc(N2CCC(CCCOc3ccc(CC(=O)N4CC(CC(=O)NCC(O)(CO)CO)C4)c(F)c3)CC2)nc1  human GPR119 (hGPR119) (Homo sapiens, UniProt Q8TDV5)          ≤ 100 nM
7  O=C(Cc1ccc(OCCCC2CCN(c3ncc(CO)cn3)CC2)cc1F)N1CC(CNC[C@H](O)[C@@H](O)[C@H](O)[C@H](O)CO)C1  human GPR119 (hGPR119) (Homo sapiens, UniProt Q8TDV5)  1000 to 10000 nM
8  O=C(Cc1ccc(OCCCC2CCN(c3ncc(Cl)cn3)CC2)cc1F)NCCCCCC(=O)NC(CO)(CO)CO  human GPR119 (hGPR119) (Homo sapiens, UniProt Q8TDV5)    100 to 1000 nM

Record request: EC50 value, item O=C(Cc1ccc(OCCCC2CCN(c3ncc(Cl)cn3)CC2)cc1F)N1CC(CN[C@@H]2C[C@H](O)[C@@H](O)[C@H]2O)C1 (racemic)
100 to 1000 nM

Record request: EC50 value, item CCCc1cnc(N2CCC(CCCOc3cc(F)c(CC(=O)N4CC(CNCC(O)(CO)CO)C4)c(F)c3)CC2)nc1
≤ 100 nM

Record request: EC50 value, item O=C(Cc1ccc(OCCCC2CCN(c3ncc(Cl)cn3)CC2)cc1F)NCCCS(=O)(=O)O
1000 to 10000 nM

Record request: EC50 value, item O=C(Cc1ccc(OCCCC2CCN(c3ncc(Cl)cn3)CC2)cc1F)N1CC(CCNC[C@H](O)[C@@H](O)[C@H](O)[C@H](O)CO)C1
100 to 1000 nM

Record request: EC50 value, item O=C(Cc1ccc(OCCCC2CCN(c3ncc(Cl)cn3)CC2)cc1F)NCCCCCNC[C@H](O)[C@@H](O)[C@H](O)[C@H](O)CO
100 to 1000 nM
